target: Neu5Ac(a2-8)Neu5Ac(a2-8)Neu5Ac(a2-8)Neu5Ac(a2-3)[GalNAc(b1-4)]Gal(b1-4)Glc; assay: glycan array binding signal (z-score within array); higher = stronger binding; details: glycan notation: IUPAC condensed, linker removed
This excerpt belongs to a sample that is enriched for the strongest signals.
measure name: glycan array binding signal (z-score)

INSERT INTO measurements (binder, numeric_result) VALUES
  ('Onconase (Rana pipiens), P22069 (protein) QDWLTFQKKHITNTRDVDCDNIMSTNLFHCKDKNTFIYSRPEPVKAICKGIIASKNVLTTSEFYLSDCNVTSRPCKYKLKKSTNKFCVTCENQAPVHFVGVGSC', 2.71),
  ('CFEM-PPl (Pichia pastoris), F2QPV1 (protein) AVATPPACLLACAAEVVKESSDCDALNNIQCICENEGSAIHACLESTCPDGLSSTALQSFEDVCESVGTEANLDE', -0.099),
  ('C-Reactive Protein (Homo sapiens), P02741 (protein) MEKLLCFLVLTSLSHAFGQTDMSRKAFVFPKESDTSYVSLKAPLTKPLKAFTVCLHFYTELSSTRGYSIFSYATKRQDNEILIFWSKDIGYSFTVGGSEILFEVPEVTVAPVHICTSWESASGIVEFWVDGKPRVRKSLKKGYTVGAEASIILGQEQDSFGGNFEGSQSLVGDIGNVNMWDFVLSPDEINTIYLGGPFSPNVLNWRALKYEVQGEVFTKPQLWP', 0.158),
  ('chitinase 3-like protein 2 (Homo sapiens) (protein) YKLVCYFTQWSQDRQEPGKFTPENIDPFLCSHLIYSFASIENNKVIIKDKSEVMLYQTINSLKTKNPKLKILLSIGGYLFGSKGFHPMVDSSTSRLEFINSIILFLRNHNFDGLDVSWIYPDQKENTHFTVLIHELAEAFQKDFTKSTKERLLLTAGVSAGRQMIDNSYQVEKLAKDLDFINLLSFDFHGSWEKPLITGHNSPLSKGWQDRGPSSYYNVEYAVGYWIHKGMPSEKVVMGIPTYGHSFTLASAETTVGAPASGPGAAGPITESSGFLAYYEICQFLKGAKITRLQDQQVPYAVKGNQWVGYDDVKSMETKVQFLKNLNLGGAMIWSIDMDDFTGKSCNQGPYPLVQAVKRSLGSL', 1.51),
  ('CC1G-11630 (Coprinopsis cinerea), A8P462 (protein) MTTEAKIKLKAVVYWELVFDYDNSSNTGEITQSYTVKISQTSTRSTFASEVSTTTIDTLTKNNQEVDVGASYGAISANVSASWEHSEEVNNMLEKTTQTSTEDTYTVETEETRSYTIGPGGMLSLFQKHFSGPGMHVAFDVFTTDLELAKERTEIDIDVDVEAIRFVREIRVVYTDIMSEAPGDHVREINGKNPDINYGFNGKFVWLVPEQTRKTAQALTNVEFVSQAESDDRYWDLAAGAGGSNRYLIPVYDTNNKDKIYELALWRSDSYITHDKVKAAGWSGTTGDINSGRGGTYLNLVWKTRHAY', -0.33),
  ('Clrb (Mus musculus) (protein) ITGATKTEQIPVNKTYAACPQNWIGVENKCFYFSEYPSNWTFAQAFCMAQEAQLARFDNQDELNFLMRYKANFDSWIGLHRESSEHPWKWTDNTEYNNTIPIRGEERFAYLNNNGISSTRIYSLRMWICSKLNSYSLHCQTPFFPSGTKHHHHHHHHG', -0.449),
  ('Flo5 (Saccharomyces cerevisiae), P38894 (protein) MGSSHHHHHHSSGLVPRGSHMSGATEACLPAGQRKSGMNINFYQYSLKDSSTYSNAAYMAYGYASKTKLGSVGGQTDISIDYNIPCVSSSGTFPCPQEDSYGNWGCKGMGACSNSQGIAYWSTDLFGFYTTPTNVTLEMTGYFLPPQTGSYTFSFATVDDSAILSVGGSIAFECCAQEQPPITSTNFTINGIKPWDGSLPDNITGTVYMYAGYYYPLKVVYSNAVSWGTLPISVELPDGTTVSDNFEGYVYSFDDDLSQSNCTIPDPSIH', -0.149),
  ('DBA (Dolichos biflorus) (protein) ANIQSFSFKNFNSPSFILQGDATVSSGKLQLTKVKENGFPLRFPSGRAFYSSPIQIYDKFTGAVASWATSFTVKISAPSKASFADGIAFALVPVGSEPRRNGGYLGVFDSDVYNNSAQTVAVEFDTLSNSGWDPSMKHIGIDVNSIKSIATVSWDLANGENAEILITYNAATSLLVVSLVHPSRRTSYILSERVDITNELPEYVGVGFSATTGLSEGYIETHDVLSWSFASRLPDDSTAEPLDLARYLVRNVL', -0.104),
  ('Glycodelin A (Homo sapiens), P09466 (protein) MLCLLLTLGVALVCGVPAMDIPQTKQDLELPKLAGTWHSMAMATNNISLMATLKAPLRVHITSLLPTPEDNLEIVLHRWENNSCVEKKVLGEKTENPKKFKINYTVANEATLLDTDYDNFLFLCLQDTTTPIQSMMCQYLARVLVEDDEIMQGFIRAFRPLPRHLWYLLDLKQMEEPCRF', 4.64),
  ('Adiponectin (Rattus norvegicus), Q8K3R4 (protein) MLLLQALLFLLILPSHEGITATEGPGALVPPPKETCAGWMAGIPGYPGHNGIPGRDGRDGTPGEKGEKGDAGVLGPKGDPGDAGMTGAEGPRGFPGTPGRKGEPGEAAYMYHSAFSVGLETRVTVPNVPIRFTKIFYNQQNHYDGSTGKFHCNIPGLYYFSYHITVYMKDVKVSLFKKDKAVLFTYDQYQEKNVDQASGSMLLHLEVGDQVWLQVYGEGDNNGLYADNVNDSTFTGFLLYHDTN', 0.861);
